# SYSTEM: Sex hormone-binding globulin (Homo sapiens)
API: label(entry) gives TRUE if the entry's -Log Kdiss is strictly smaller than 6; on equality or larger values it gives FALSE.

Some entries whose results are on file:
# MOLECULE, CATEGORY
rows = [
    ("C[C@]12C[C@H](O)[C@H]3[C@@H](CCC4=CC(=O)CC[C@@]43C)[C@@H]1CC[C@@H]2C(=O)CO", "TRUE"),
    ("C[C@]12CCC(=O)C=C1CC[C@@H]1[C@@H]2[C@@H](O)C[C@@]2(C)[C@H]1CC[C@]2(O)C(=O)CO", "TRUE"),
    ("C[C@]12CC[C@@H]3c4ccc(O)cc4CCC3[C@@H]1CCC2=O (single isomer, unassigned)", "FALSE"),
    ("CC(=O)[C@@]1(O)CC[C@H]2[C@@H]3CC=C4C[C@@H](O)CC[C@]4(C)[C@H]3CC[C@@]21C", "TRUE"),
    ("C[C@]12CCC(=O)C[C@@H]1CC[C@@H]1[C@@H]2CC[C@]2(C)[C@@H](O)CC[C@@H]12", "FALSE"),
]

Data request: Find out if reported -Log Kdiss for C[C@]12CC[C@H](O)CC1=CCC1C2CC[C@]2(C)C(=O)CCC12 (some centres undefined) is less than 6
Data returned: FALSE

Data request: Find out if reported -Log Kdiss for `C[C@]12CC[C@H]3[C@@H](CCC4=CC(=O)CC[C@@]43C)[C@@H]1CC[C@@H]2C(=O)CO` is less than 6
Data returned: FALSE

Data request: Find out if reported -Log Kdiss for `C[C@]12CCC(=O)C=C1CC[C@@H]1[C@@H]2CC[C@]2(C)C(=O)CC[C@@H]12` is less than 6
Data returned: FALSE

Data request: Find out if reported -Log Kdiss for C[C@]12CCC(=O)C=C1CCC1C3CC[C@H](C(=O)CO)[C@@]34C[C@H](OC4O)C12 (some centres undefined) is less than 6
Data returned: TRUE

Data request: Find out if reported -Log Kdiss for `C[C@]12CC[C@H]3[C@@H](CCC4=CC(=O)CC[C@@]43C)[C@@H]1CC[C@@H]2O` is less than 6
Data returned: FALSE

====

# SYSTEM: Sex hormone-binding globulin (Homo sapiens)
Reported -Log Kdiss is given for each of the following molecules.
Answer with a number only.

Reference set, count: 5
# MOLECULE, SYSTEM, QUANTITY_MEASURED, MEASURED
rows = [
    ("CC(=O)[C@H]1CC[C@H]2[C@@H]3CC=C4C[C@@H](O)CC[C@]4(C)[C@H]3CC[C@]12C", "Sex hormone-binding globulin (Homo sapiens)", "-Log Kdiss", 6.15),
    ("C[C@]12CCC(=O)C=C1CC[C@@H]1[C@@H]2C(=O)C[C@@]2(C)[C@H]1CC[C@]2(O)C(=O)CO", "Sex hormone-binding globulin (Homo sapiens)", "-Log Kdiss", 5.43),
    ("C[C@]12CCC(=O)C=C1CC[C@@H]1[C@@H]2CC[C@@]2(C)[C@H]1CC[C@]2(O)C(=O)CO", "Sex hormone-binding globulin (Homo sapiens)", "-Log Kdiss", 6.2),
    ("C[C@]12CC[C@@H]3c4ccc(O)cc4CC[C@H]3[C@@H]1C[C@@H](O)[C@@H]2O", "Sex hormone-binding globulin (Homo sapiens)", "-Log Kdiss", 5.63),
    ("C[C@]12CC[C@@H](O)C[C@@H]1CC[C@@H]1[C@@H]2CC[C@]2(C)C(=O)CC[C@@H]12", "Sex hormone-binding globulin (Homo sapiens)", "-Log Kdiss", 6.15),
]

Data request: Query -Log Kdiss on Sex hormone-binding globulin (Homo sapiens) for `C[C@]12CC[C@H](O)C[C@@H]1CC[C@@H]1[C@@H]2CC[C@]2(C)[C@@H](O)CC[C@@H]12`
Data returned: 8.11

Data request: Query -Log Kdiss on Sex hormone-binding globulin (Homo sapiens) for `CC(=O)[C@H]1CC[C@H]2[C@@H]3CCC4=CC(=O)CC[C@]4(C)[C@H]3CC[C@]12C`
Data returned: 5.94

Data request: Query -Log Kdiss on Sex hormone-binding globulin (Homo sapiens) for C[C@]12CCC3C(CC[C@@H]4CC(O)=CC[C@]34C)C1CCC2=O (some centres undefined)
Data returned: 5.15

Data request: Query -Log Kdiss on Sex hormone-binding globulin (Homo sapiens) for `CC(=O)[C@@]1(O)CC[C@H]2[C@@H]3CCC4=CC(=O)CC[C@]4(C)[C@H]3CC[C@@]21C`
Data returned: 6
